Measured values drawn from patent US20230044278A1 for this set.

Study Target: T1, recombinant cynomolgus monkey (Macaca fascicularis) transferrin receptor 1 (cynomolgus monkey (Macaca fascicularis), UniProt Q5RDH6 87-760 (Pongo abelii entry), limits assumed)
T1 construct: also called cTfR1; cyno TfR1
T1 chain: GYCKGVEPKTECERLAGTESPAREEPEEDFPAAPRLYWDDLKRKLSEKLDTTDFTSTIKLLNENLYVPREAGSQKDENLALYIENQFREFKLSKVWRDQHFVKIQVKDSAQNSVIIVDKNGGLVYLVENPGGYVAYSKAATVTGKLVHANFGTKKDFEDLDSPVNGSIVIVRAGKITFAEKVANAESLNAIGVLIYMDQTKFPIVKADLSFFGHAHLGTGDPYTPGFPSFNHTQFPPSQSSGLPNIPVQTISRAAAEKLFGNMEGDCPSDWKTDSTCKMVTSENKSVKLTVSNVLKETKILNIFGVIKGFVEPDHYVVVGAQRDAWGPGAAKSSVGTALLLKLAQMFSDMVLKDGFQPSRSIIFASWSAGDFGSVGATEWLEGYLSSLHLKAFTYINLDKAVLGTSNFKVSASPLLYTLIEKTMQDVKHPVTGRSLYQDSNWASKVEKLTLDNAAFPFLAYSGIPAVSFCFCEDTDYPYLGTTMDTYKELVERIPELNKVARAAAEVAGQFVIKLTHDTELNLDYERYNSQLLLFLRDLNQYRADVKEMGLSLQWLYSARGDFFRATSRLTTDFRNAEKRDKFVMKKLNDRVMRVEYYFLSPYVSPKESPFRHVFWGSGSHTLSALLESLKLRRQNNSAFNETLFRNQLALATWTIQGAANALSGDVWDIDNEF
Test Method Notes: ELISA, thermal stability d9 (after 9 days at high temperature); printed as 'Binding affinity cyno TfR1 d9 (nM)'
Provide the recorded EC50 for the entries that follow.
Note: unit nM is implicit; provide only the numeric part.

[Q] Need EC50, item humanized anti-TfR Fab 3M12 (VH4/Vk3) (Fab, V domains shown, unconjugated; also called 3M12 VH4/Vκ3) VH: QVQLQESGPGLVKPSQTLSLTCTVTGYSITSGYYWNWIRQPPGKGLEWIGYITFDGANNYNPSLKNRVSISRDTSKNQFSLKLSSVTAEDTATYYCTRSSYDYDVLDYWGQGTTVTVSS VL: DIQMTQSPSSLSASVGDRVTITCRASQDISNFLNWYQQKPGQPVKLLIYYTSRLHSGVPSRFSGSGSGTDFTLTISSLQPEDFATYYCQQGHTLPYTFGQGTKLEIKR
[A] 16.4

[Q] // lookup EC50 for humanized anti-TfR Fab 3A4 (VH3-N54T/Vk4) (Fab, V domains shown, unconjugated; also called 3A4 VH3 (N54T*)/Vκ4) VH: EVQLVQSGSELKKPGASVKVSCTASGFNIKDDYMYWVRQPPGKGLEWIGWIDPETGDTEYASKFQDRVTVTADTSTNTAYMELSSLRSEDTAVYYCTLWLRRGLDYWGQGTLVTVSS VL: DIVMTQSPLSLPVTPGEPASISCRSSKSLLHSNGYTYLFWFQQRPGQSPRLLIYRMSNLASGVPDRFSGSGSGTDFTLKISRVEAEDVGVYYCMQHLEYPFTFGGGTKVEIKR
[A] 128

[Q] Could you tell me which EC50 is on file for humanized anti-TfR Fab 3A4 (VH3-N54S/Vk4) (Fab, V domains shown, unconjugated; also called 3A4 VH3 (N54S*)/Vκ4) VH: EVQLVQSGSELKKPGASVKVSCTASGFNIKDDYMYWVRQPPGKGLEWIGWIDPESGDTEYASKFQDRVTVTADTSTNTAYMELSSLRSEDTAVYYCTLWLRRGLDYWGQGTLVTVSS VL: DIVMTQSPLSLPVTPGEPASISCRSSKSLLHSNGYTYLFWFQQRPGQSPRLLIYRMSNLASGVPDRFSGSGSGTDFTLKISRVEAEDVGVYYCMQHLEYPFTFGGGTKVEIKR ?
[A] 248
